# assayed_target: human PDE4D3 (Homo sapiens (Human), UniProt Q08499)
# Sequence (Q08499 186-808): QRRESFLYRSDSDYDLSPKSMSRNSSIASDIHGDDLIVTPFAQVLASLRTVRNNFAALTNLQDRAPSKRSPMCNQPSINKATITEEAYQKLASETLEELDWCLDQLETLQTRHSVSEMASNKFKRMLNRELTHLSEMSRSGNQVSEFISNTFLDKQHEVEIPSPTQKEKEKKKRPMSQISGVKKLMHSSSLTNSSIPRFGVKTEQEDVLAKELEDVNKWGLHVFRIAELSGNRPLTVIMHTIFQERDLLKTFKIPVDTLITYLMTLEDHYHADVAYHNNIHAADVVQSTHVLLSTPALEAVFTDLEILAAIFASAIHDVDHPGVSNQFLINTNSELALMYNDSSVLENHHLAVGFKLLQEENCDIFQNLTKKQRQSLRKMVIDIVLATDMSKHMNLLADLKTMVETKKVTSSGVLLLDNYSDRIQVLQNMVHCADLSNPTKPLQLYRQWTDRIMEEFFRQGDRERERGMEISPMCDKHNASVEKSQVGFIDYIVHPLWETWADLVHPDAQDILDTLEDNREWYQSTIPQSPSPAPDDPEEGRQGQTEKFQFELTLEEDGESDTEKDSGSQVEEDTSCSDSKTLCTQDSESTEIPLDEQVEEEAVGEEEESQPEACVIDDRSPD
# assay_details: PDE4D3 Scintillation Proximity Assay (SPA), inhibition of enzyme activity
# Assay type: biochemical
# assay_context: Table 9, geometric mean of 2-9 determinations unless otherwise indicated, read-out: Human PDE4D FL
# Procedure: The PDE4A, PDE4B, PDE4C and PDE4D binding affinity for the compounds of the present invention was determined utilizing the following biological assay(s): A portion of the human PDE4D3 coding sequence (amino acids 50 to 672 from the sequence with accession number Q08499-2) was cloned into the baculovirus expression vector pFastBac (Invitrogen) engineered to include a C-terminal His6 affinity tag to aid in purification as described in Seeger, T. F. et al., Brain Research 985 (2003) 113-126. […]
observation_type: log10 IC50 (log10 of the value in nM)
A difference of one corresponds to tenfold IC50; all values are log10 with IC50 in nM.

Check out these entries, answers already filled in.
| compound | log10 IC50 |
| --- | --- |
| O=C1c2c(-c3ccc(Cl)cc3)c3c(n2CCN1C1CC1)CCCO3 [Example 75] | 2.46 |
| O=C1c2c(-c3cc(F)c(Cl)cc3F)c3c(n2CCN1C1CC1)CCCO3 [Example 77] | 1.75 |
| COc1ccc(-c2c3n(c4cccnc24)CCN(C2CC2)C3=O)cn1 [Example 53] | 2.63 |
| N#Cc1ccc(-c2c3n(c4scnc24)CCN(C2CC2)C3=O)cc1F [Example 72] | 1.96 |
| O=C1c2c(-c3cc(F)c(F)c(F)c3)c3ncccc3n2CCN1C1CC1 [Example 40] | 1.24 |
| O=C1c2c(-c3ccc(Cl)cc3)c3cccnc3n2CCN1C1CC1 [Example 9] | 3.91 |
| O=C1c2c(-c3ccc(Cl)cc3)c3ncsc3n2CCN1C1CC1 [Example 27] | 2.64 |
| Cc1ncc(-c2c3n(c4cccnc24)CCN(C2CC2)C3=O)cn1 [Example 21] | 3.64 |
| C[C@H]1Cn2c(c(-c3ccc(Cl)cc3)c3ncccc32)C(=O)N1C1CC1 [Example 11] | 1.46 |
| O=C1c2c(-c3ccc(Cl)cc3)c3ncccc3n2CCN1c1ncccn1 [Example 1] | 3.09 |

# log10 IC50 measured on human PDE4D3 (Homo sapiens (Human), UniProt Q08499) for item N#Cc1ccc(-c2c3ncccc3n3ccn(C4CC4)c(=O)c23)cc1 [Example 70] = 2.03

Measured log10 IC50 for this entry Cc1ccc(-c2c3n(c4cccnc24)CCN(C2CC2)C3=O)cc1 [Example 20] on human PDE4D3 (Homo sapiens (Human), UniProt Q08499): 2.67

human PDE4D3 (Homo sapiens (Human), UniProt Q08499) data for Cc1cc(Cl)ccc1-c1c2n(c3cccnc13)CCN(c1ncccn1)C2=O [Example 73] ; its log10 IC50: 2.85

Data provenance is patent US11472805B2.
